The following molecules are listed with their measured solubility kinetic values.
conditions: buffer; pH 7.4; 200.0 µM

Exam item: Please look up its solubility kinetic: `NC(=O)CSc1nccn1Cc1ccc(Cl)cc1`
Marked response: > 42.3 µg/mL

Exam item: Please look up its solubility kinetic: `COCCCN(CC(=O)O)S(=O)(=O)c1cccc(Cl)c1`
Marked response: > 48.3 µg/mL

Exam item: Please look up its solubility kinetic: `Cc1[nH]c(=O)[nH]c(=O)c1S(=O)(=O)Nc1cccc(C(F)(F)F)c1`
Marked response: > 52.4 µg/mL

* * *

The following compounds are listed with their measured solubility kinetic values.
settings: buffer; pH 7.4; 200.0 µM

Recorded results for 3 compounds are shown here.
INSERT INTO results (compound, observation_type, assay_value) VALUES
  ('COc1ccccc1/C=C/C(=O)NC(=S)N1CCN(C)CC1', 'solubility kinetic', '> 47.9 µg/mL'),
  ('COc1ccc(N/N=C(\C#N)C(=N)N2CCOCC2)cc1', 'solubility kinetic', '> 43.1 µg/mL'),
  ('CN(C(=O)C1CCC(=O)N(C2CC2)C1)C1CCCCC1 (configuration not stated)', 'solubility kinetic', '> 41.8 µg/mL');

Exam item: Please look up its solubility kinetic: `COC(=O)C1CCN(C(=O)COC(=O)/C=C/c2ccc(O)c(OC)c2)CC1`
Marked response: > 56.6 µg/mL

Exam item: Please look up its solubility kinetic: O=C(C1CCCC1)N1CCCC(Nc2ccc(F)cc2)C1 (configuration not stated)
Marked response: > 43.6 µg/mL

Exam item: Please look up its solubility kinetic: `Cc1ccc(SCC(=O)NC2CCCCCC2)cc1`
Marked response: > 41.6 µg/mL

Exam item: Please look up its solubility kinetic: `CN(CC(=O)Nc1ccc(F)cc1)C(=O)Cc1ccsc1`
Marked response: > 46 µg/mL

* * *

details: buffer; pH 7.4; 200.0 µM
OBSERVATION TYPE: log10(solubility kinetic) (log10 of the value in µg/mL)
Heads up: the numbers are on a log10 scale; they represent solubility kinetic in µg/mL.

INSERT INTO measurements (compound, observation_type, assay_value) VALUES
  ('Cc1cccc2nc3ccccc3nc12', 'log10(solubility kinetic)', -0.15),
  ('S=c1[nH]cnc2scc(-c3ccc(Cl)cc3)c12', 'log10(solubility kinetic)', -0.30),
  ('Nc1nc(Cl)cc(Oc2ccc([N+](=O)[O-])cc2)n1', 'log10(solubility kinetic)', 0.18),
  ('COc1ccccc1-c1cc(C(=O)NC2CCCC2)no1', 'log10(solubility kinetic)', 0.79),
  ('c1ccc(CCNc2nc(-c3ccncc3)nc3ccccc23)cc1', 'log10(solubility kinetic)', -0.52);

Exam item: Please look up its log10(solubility kinetic): CCC(C)c1ccc(NC(=O)Nc2cnccn2)cc1 (stereo not drawn)
Marked response: 0.11

* * *

The following compounds are listed with their measured solubility kinetic values.
conditions: buffer; pH 7.4; 200.0 µM

INSERT INTO assay_data (compound, observation_type, assay_value) VALUES
  ('Cc1cc(SCc2ccccc2F)nc(=O)[nH]1', 'solubility kinetic', '> 37.5 µg/mL');

Exam item: Please look up its solubility kinetic: `Cc1cc(C(=O)OCC(=O)NCc2ccco2)c(C)o1`
Marked response: > 41.6 µg/mL

Exam item: Please look up its solubility kinetic: CC(C)Oc1ccc(C2CC(=O)NC2=O)cc1 (centres undefined)
Marked response: > 35 µg/mL

Exam item: Please look up its solubility kinetic: COc1ccc(CCC(C)NCC(C)c2ccccc2)cc1 (centres undefined)
Marked response: > 44.6 µg/mL
